Target: T1, 4H3133-AA
T1 chain: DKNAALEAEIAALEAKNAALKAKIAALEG
Assay: two-hybrid library CCmax;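 further: natural log of median RNA to DNA barcode read ratio; higher means stronger binding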
Conditions: mean of both orientations
value_type: interaction score

The examples below pair each entry with its known result.
{"binder": "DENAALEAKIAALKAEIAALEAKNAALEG [4H1351-AA]", "interaction score": -0.555}
{"binder": "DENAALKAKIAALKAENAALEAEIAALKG [4H1874-AA]", "interaction score": 1.46}
{"binder": "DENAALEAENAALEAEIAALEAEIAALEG [4H1153-AA]", "interaction score": -2.15}

Each of the following entries comes with a recorded value; kindly state interaction score for each.
1. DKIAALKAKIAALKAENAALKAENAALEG [4H2907-AA]
2. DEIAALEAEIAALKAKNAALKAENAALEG [4H123-AA]

Response given:
[-1.24, -2.05]
